Recorded binding signal values for a group of binders are listed next.
Target: T1, UNK ZnF1-3 (human, UniProt Q9C0B0 31-174)
T1 sequence: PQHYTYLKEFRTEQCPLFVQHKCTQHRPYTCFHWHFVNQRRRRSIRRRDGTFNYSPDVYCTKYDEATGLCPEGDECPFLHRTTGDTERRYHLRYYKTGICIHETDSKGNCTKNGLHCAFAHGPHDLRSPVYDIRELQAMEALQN
Assay: nsRBNS (natural sequence RNA bind-n-seq); RBNS binding buffer (assumed for nsRBNS): 25 mM Tris pH 7.5, 150 mM KCl, 3 mM MgCl2, 0.01% Triton X-100, 500 ug/ml BSA, 20 U/ml SUPERase-In, 4 C; UNK is unkempt and MSI1 is Musashi-1; names of the RNAs are library labels; protein concentration not given here; high values mean tight binding
The full ranking holds about 24,000 sequences; the median of “enrichment r” is about 0.99, and the highest 2% start at about 3.7. This excerpt belongs to a sample that is enriched for the highest values.
experimentalEndpoint: binding signal (enrichment R)

• chr8:59070621:59070622:+_ENSMUSG00000038206_ENSMUST00000040218|mus_mus|motif|central (ssRNA) RNA: GGGAGUUCUACAGUCCGACGAUCAAACAUGAUGAGCAAAUUAAGAAAAGUUCUGUAAAAUUAGUUAGUUCUGAGAUUUCGGAACGGGAAAACAGUGAAACAAAAAAGGGGGGGUGCAGUCAAGCUGGAUUUUACACACAGGCUCAACAGAGGAUUGAGCAUCA = 9.45
• chr8:59070621:59070622:+_ENSMUSG00000038206_ENSMUST00000040218|mus_mus|FALSE|FALSE (ssRNA) RNA: GGGAGUUCUACAGUCCGACGAUCAAACAUGAUGAGCAAAUUAAGAAAAGUUCUGUAAAAUUAGUUAGUUCUGAGAUUUCUAAACUAGAAAACAGUGAAACAAAAAAGGGGGGGUGCAGUCAAGCUGGAUUUUACACACAGGCUCAACAGAGGAUUGAGCAUCA = 7.52
• 60821080_60823165_1073_3pUTR_ENSMUSG00000021559_ENSMUST00000077453|mouse|control|control (ssRNA) RNA: GGGAGUUCUACAGUCCGACGAUCUUCGACUAAGUGCUUGUUGGGUGUCUUUAGGCUUGAUCCAGGGGUGCUGCAAACUGUCCUGGAUUGUCAUCCUCUUCUUUGGAUCCUUGACCAGCAGUCUUCUGAUGAAAUCUUUGGCAACAACAGAGGAUUGAGCAUCA = 0.466
